System: RARg:RXRa (NR concentration 270 nM, RXRa partner concentration 90 nM)
Test: PBM binding z-score (relative to random genomic background probes); higher = stronger binding; sequences stand for … in GC…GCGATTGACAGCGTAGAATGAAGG
READOUT: PBM binding z-score

Problem: Which PBM binding z-score is reported for this sequence? `GCTCGGAGGCCAAGGTCAGAGCTTTGTCCGTAGA`
Result: 2.72

Problem: Which PBM binding z-score is reported for this sequence? `CCTTACGGGTCACTCCAAGTTATAGCATCGGAGT`
Result: 4.31

Problem: Which PBM binding z-score is reported for this sequence? `CCTCGGAGGACACAAGGTCAGAGCTGTCCGCTTT`
Result: 3.85

Problem: Which PBM binding z-score is reported for this sequence? `TCTCGGAGGACACGGAGGTCAGAGCTTTCCAGAG`
Result: 3.54

----------
System: PPARg:RXRa (NR concentration 180 nM, RXRa partner concentration 90 nM)
Assay: PBM binding z-score (relative to random genomic background probes); higher = stronger binding; sequences stand for … in GC…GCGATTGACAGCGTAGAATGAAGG
READOUT: PBM binding z-score
Respond with the number and no other words.

Before answering, review these 10 worked examples.
> print(dat)
                              residues  measured.value
 1  CATACAGGGTCAGGTAGGCCAGAGTAGGGACGGC            3.15
 2  TCTATAAGTTGATTAGGGCAACCGAAACAGCGGA           0.429
 3  CGTCCAAGGGCAAGGTCAGTGAAAGAGACTCGAA           0.977
 4  AGTCAAAGTTCAGGATGAGGTAACGTAAAGCACG            4.66
 5  ATATGTAGGTTAAGGGTCATACAGGTTGGTTCGC            12.1
 6  TAGCCTAGGTCATGAGCCAGTATACCACGCGAAC            3.35
 7  CCTATTCGTTGACCATAAGGGCAACCGAAGCTCG             0.4
 8  CGTCCAAGGTCAATGCTAGGTCAGCGAAAGCATT            4.44
 9  CATACAGGGTCAGCTGGGCCAGAGTAGGGACGGC            2.85
10  GCAGACAGGTGAAACGCAGGTAACTAAGGGTGGC           0.651

Problem: Which PBM binding z-score is reported for this sequence? `TCTTGTAGATCAATAGAGGTTATGAAAGTGCGCT`
Result: 0.356

Problem: Which PBM binding z-score is reported for this sequence? `CAAACTAGGTCAAGAGGTGAAAGTCCGCTTCCCG`
Result: 8.82

----------
Tested on: RARa homodimer (NR concentration 270 nM)
Test: PBM binding z-score (relative to random genomic background probes); higher = stronger binding; sequences stand for … in GC…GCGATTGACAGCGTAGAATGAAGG
READOUT: PBM binding z-score
Respond with the number and no other words.

Before answering, review these 5 worked examples.
> print(dat)
                             residues  measured.value
1  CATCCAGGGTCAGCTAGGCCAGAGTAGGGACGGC           0.407
2  TAGCCTAGGTCAATCAGGGGCCAGTATAGAAAGC          -0.673
3  CGTCCAAGGTCAATGCTAGGTCAGGGAAAGCATT           0.824
4  TCTGCTAGGCCAACGATGGTCAGCTAATCTGCTA           -1.04
5  CCTACTGGGCCCAGGTCATTGATCAGTCAAAGCA           0.064

Now for another entry.
Problem: Which PBM binding z-score is reported for this sequence? `ATCTCTAGGTAAAGTTCTGTGAAAGATCGATAGA`
Result: 0.939

----------
In this section we review reported PBM binding z-score values for a set of sequences.
System: VDR:RXRa (NR concentration 270 nM, RXRa partner concentration 90 nM)
Assay: PBM binding z-score (relative to random genomic background probes); higher = stronger binding; sequences stand for … in GC…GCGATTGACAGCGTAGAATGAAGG
Respond with the number and no other words.

Before answering, review these 3 worked examples.
> print(dat)
                             residues  measured.value
1  ACTCGGAGGACAACGGTCAGAGCTACGCCAGTGA          -0.667
2  AACGAAAGGTCGTGAGGTGAGTATACAGAAAGGC            3.68
3  TAGCCTAGGTCATGTGGGCCAGTATAGTGTCGGC            2.62

Problem: Which PBM binding z-score is reported for this sequence? `ACTAGTTGGTCAGCTGAGGGCACACACAATTCGG`
Result: 1.2

Problem: Which PBM binding z-score is reported for this sequence? `ATCGAAAGGTCGTGCGGTGAGTATACAGAAAGGC`
Result: 3.46

Problem: Which PBM binding z-score is reported for this sequence? `CCAGCCAGGTGAGAAGGTAACTCAGCCTCGATTA`
Result: -0.314

Problem: Which PBM binding z-score is reported for this sequence? `TCATATAGGTAAAAGCTAGGTGAAAGTCCGATCT`
Result: 0.608

Problem: Which PBM binding z-score is reported for this sequence? `AATACAGGGTCATCGTAGGCCCGAGTACGCACAG`
Result: 4.95

Problem: Which PBM binding z-score is reported for this sequence? `GGAACTAGGGCAAGTTGATAGCAGAGTTTGATGG`
Result: -0.183

Problem: Which PBM binding z-score is reported for this sequence? `TCTTGTAGATCAGCAGGTTAAGCAAGCTGGCCAA`
Result: 0.275

Problem: Which PBM binding z-score is reported for this sequence? `CGTCCAAAGTCATAGGAGGTCAGTGAAGACAGAT`
Result: 3.12

Problem: Which PBM binding z-score is reported for this sequence? `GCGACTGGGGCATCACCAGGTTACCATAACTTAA`
Result: -0.162

Problem: Which PBM binding z-score is reported for this sequence? `CCTACTGGGCCATCAGTTCATTGATATCAACGTT`
Result: 1.13

Problem: Which PBM binding z-score is reported for this sequence? `GCATATAGGTAATAAAAGGTGAAAGTCCGATTGT`
Result: 0.675

Problem: Which PBM binding z-score is reported for this sequence? `CGAACTAGGTCAGGACAGGACAGTGAAGGATGAT`
Result: 0.943

Problem: Which PBM binding z-score is reported for this sequence? `ACTATTAGTTGAGACCAGGGCAACCGATAGGTTG`
Result: -0.036

Problem: Which PBM binding z-score is reported for this sequence? `CAAACTAGGTCAAAGGTCAAATTCGAGCCAACCA`
Result: 6.75

----------
In this section we review reported PBM binding z-score values for a set of sequences.
System: PPARg:RXRa 30nM:10nM, anti-RXR (NR concentration 30 nM, RXRa partner concentration 10 nM)
Assay: PBM binding z-score (relative to random genomic background probes); higher = stronger binding; sequences stand for … in GC…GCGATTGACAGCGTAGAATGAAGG
Respond with the number and no other words.

> print(dat)
                             residues  measured.value
1  AGAATGAGCTTAAGATCAGGGAAACAGAATACAT           0.137
2  CCTATTAGTTGACCATACGGGCAACCGAAGCTCG          -0.298
3  TCTTGTAGGTCAACAGGAGGTTAAGAAAGATCGA             5.3
4  TCTAGTTGGTCACTGAGGTCACACACGACGGGTA            3.27
5  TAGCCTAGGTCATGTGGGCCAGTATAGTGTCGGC           0.388

Problem: Field: PBM binding z-score (PPARg:RXRa 30nM:10nM, anti-RXR (NR concentration 30 nM, RXRa partner concentration 10 nM)). Entry: `TTACCAAGGTGAAGTTCGTTGATCCCTCTGTAGA`
Result: 0.877

Problem: Field: PBM binding z-score (PPARg:RXRa 30nM:10nM, anti-RXR (NR concentration 30 nM, RXRa partner concentration 10 nM)). Entry: `CCTAGCAGGCCAATCTGGGTCACTCCAGGCTTGA`
Result: -0.235

Problem: Field: PBM binding z-score (PPARg:RXRa 30nM:10nM, anti-RXR (NR concentration 30 nM, RXRa partner concentration 10 nM)). Entry: `ATCGAAAGTTCGAGGTGAGTATAGAGAAAGGGAA`
Result: 0.3

Problem: Field: PBM binding z-score (PPARg:RXRa 30nM:10nM, anti-RXR (NR concentration 30 nM, RXRa partner concentration 10 nM)). Entry: `ATCGAAAGGTCGAGGTGAGTATTGAGAAAGGGAA`
Result: 1.37

Problem: Field: PBM binding z-score (PPARg:RXRa 30nM:10nM, anti-RXR (NR concentration 30 nM, RXRa partner concentration 10 nM)). Entry: `ATCTCTAGCTAAAGTTCAGTGAAAGATCGATAGA`
Result: 1.53

Problem: Field: PBM binding z-score (PPARg:RXRa 30nM:10nM, anti-RXR (NR concentration 30 nM, RXRa partner concentration 10 nM)). Entry: `TCTAGTTGGTCAAAGGTCGCACACTCGAAATGCG`
Result: 10.5

Problem: Field: PBM binding z-score (PPARg:RXRa 30nM:10nM, anti-RXR (NR concentration 30 nM, RXRa partner concentration 10 nM)). Entry: `GCAGACAGGTGGAACGCAGGTAACTCAGGGTGGC`
Result: -0.85

Data credit: the supplement of paper PMC6555819
